Tested on: PNT1 (human normal prostate epithelium) cells
TEST: MTT antiproliferative assay on PNT1 cells
Type: cell-based
MEASUREMENT_CONDITIONS: 72 h of treatment, MTT assay, mean ± SD of three experiments; read-out: Half-maximal inhibitory concentration (IC50), PNT1
Protocol: The inhibition of cell proliferation by Au2phen, Auoxo6, and AuL12 on A2780 cell line was evaluated through MTT (3-(4,5-dimethylthiazol-2-yl)-2,5-diphenyltetrazolium bromide) test. Viable cells can convert MTT into formazan, which is coloured and detectable at 595 nm. […] Following precipitation, blue formazan was dissolved in DMSO, and the optical density was read in a microplate reader interfaced with Microplate Manager/PV version 4.0 software (BioRad Laboratories, Hercules, USA). […]
The compounds listed here are annotated with their IC50.
Please give a number only; it is taken to be in µM.

Solved cases below.
INSERT INTO assay_data (compound, value_type, unit_symbol, value_observed) VALUES
  ('Cc1ccc2ccc3ccc(C)[n+]4c3c2[n+]1[Au-]41[O][Au-]2([O]1)[n+]1c(C)ccc3ccc4ccc(C)[n+]2c4c31.F[P-](F)(F)(F)(F)F.F[P-](F)(F)(F)(F)F', 'IC50', 'µM', 11.8),
  ('CCOC(=O)CN(C)C1=[S+][Au-]([Br])([Br])[S]1 [AuL12, reference compound]', 'IC50', 'µM', 12.3);

What value of IC50 has been reported for the following compound? Cc1cccc2[n+]1[Au-]1([O][Au-]3([O]1)[n+]1c(C)cccc1-c1cccc(C)[n+]13)[n+]1c(C)cccc1-2.F[P-](F)(F)(F)(F)F.F[P-](F)(F)(F)(F)F
18.4

----------
The molecules listed here are annotated with their IC50.
Tested on: HEK293 (human embryonic kidney) cells
TEST: MTT antiproliferative assay on HEK cells
Assay type: cell-based
MEASUREMENT_CONDITIONS: 72 h of treatment, MTT assay, mean ± SD of three experiments; read-out: Half-maximal inhibitory concentration (IC50), HEK293
Hi, when you answer, please include the unit after the number. Thanks!

What value of IC50 has been reported for the following molecule? Cc1cccc2[n+]1[Au-]1([O][Au-]3([O]1)[n+]1c(C)cccc1-c1cccc(C)[n+]13)[n+]1c(C)cccc1-2.F[P-](F)(F)(F)(F)F.F[P-](F)(F)(F)(F)F
6.16 µM

What value of IC50 has been reported for the following molecule? CCOC(=O)CN(C)C1=[S+][Au-]([Br])([Br])[S]1 [AuL12, reference compound]
10.7 µM

What value of IC50 has been reported for the following molecule? Cc1ccc2ccc3ccc(C)[n+]4c3c2[n+]1[Au-]41[O][Au-]2([O]1)[n+]1c(C)ccc3ccc4ccc(C)[n+]2c4c31.F[P-](F)(F)(F)(F)F.F[P-](F)(F)(F)(F)F
4.18 µM
